Biological target: BRD4 domain 1 (Homo sapiens, UniProt O60885)
Experiment: Kd determination of inhibitors binding to BRD4 domain 1 (Epic label-free platform)
Conditions: direct binding to immobilized BRD4 domain 1; tripling dilution series from 20µM; about 1hr equilibrium; rounded to whole number; read-out: Epic Kd BRD41
property: Kd (µM)

Example compounds with recorded Kd:
Cc1noc(C)c1-c1cc(S(=O)(=O)NC2CCCC2)c2cc(C(=O)N(C)C)c(=O)[nH]c2c1 : 10.7
Cc1noc(C)c1-c1cc(S(=O)(=O)N[C@@H]2CCC[C@H]2O)c2cccnc2c1 : 4.09
Cc1noc(C)c1-c1cc(S(=O)(=O)NC2CCCC2)c2cc(Br)c(=O)[nH]c2c1 : 1.02

P. Cc1noc(C)c1-c1cc(S(=O)(=O)NC2CCCC2)c2cc(N3CCOC3=O)c(=O)[nH]c2c1
Q. Cc1noc(C)c1-c1cc(S(=O)(=O)N[C@@H](CC(C)(C)C)C(=O)N2CCNCC2)c2cccnc2c1
Hi team, can someone confirm which has the larger Kd: P or Q ? Thanks. Answer = label.
Q
(Q: 13.7 µM, P: 4.85 µM)

a. Cc1noc(C)c1-c1cc(S(=O)(=O)N[C@H](C)C(F)(F)F)c2cccnc2c1
b. Cc1noc(C)c1-c1cc(S(=O)(=O)NC2CCCC2)c2nccnc2c1
Form field 'greater Kd' accepts a or b ; which applies? Pick one; state its label.
a

---

Target: BRD4 domain 2 (Homo sapiens)
Test: Kd determination of inhibitors binding to BRD4 domain 2 (Epic label-free platform)
Conditions: direct binding to immobilized BRD4 domain 2; tripling dilution series from 20µM; about 1hr equilibrium; rounded to whole number
pKd: −log10 of the molar value.
property: pKd

Recorded results for 8 molecules are shown here.
Cc1noc(C)c1-c1cc(S(=O)(=O)NC2CCCC2)c2cc(C(N)=O)c(=O)[nH]c2c1 [Compound 69] : 5.93
Cc1noc(C)c1-c1cc(S(=O)(=O)NCCc2ccccc2)c2ccc(=O)[nH]c2c1 [Compound 48] : 4.70
Cc1noc(C)c1-c1cc(S(=O)(=O)N[C@@H]2CCC[C@H](O)C2)c2cccnc2c1 [Compound 20] : 5.32
Cc1noc(C)c1-c1cc(S(=O)(=O)NC2CCCC2)c2ccc(Cl)nc2c1 [Compound 3] : 5.53
Cc1noc(C)c1-c1cc(S(=O)(=O)NC2CCCC2)c2cc(NC(CO)CO)c(=O)[nH]c2c1 [Compound 92] : 6.31
Cc1noc(C)c1-c1cc(S(=O)(=O)N[C@@H]2CCC[C@H]2C(=O)NC2CCCC2)c2cccnc2c1 [Compound 35] : 4.71
CNc1cc2c(S(=O)(=O)NC3CCCC3)cc(-c3c(C)noc3C)cc2[nH]c1=O [Compound 62] : 6.28
Cc1noc(C)c1-c1cc(S(=O)(=O)NC2CCCC2)c2cc(NCC(F)F)c(=O)[nH]c2c1 [Compound 79] : 6.22

A. Cc1noc(C)c1-c1cc(S(=O)(=O)NC2CCCC2)c2cc(C(=O)O)c(=O)[nH]c2c1 [Compound 70]
B. Cc1noc(C)c1-c1cc(S(=O)(=O)N[C@@H]2CCC[C@H]2C(=O)N2CCN(C)CC2)c2cccnc2c1 [Compound 71]
Between A and B , which one has the lower reported pKd value? Give the chosen item's label as your response.
B

I. Cc1noc(C)c1-c1cc(S(=O)(=O)NC2CCCC2)c2cccnc2c1Cl [Compound 18]
II. Cc1noc(C)c1-c1cc(S(=O)(=O)NC2CCCC2)c2ccc(N3CCNCC3)nc2c1 [Compound 44]
III. CCN[C@H]1CCC[C@H]1NS(=O)(=O)c1cc(-c2c(C)noc2C)cc2ncccc12 [Compound 53]
IV. CC(=O)NCCNC(=O)[C@@H]1CCC[C@H]1NS(=O)(=O)c1cc(-c2c(C)noc2C)cc2ncccc12 [Compound 73]
Sort low-to-high on pKd, please. Write out the labels following the order that was asked for.
IV, III, I, II

P. Cc1noc(C)c1-c1cc(S(=O)(=O)NC2CCCC2)c2cc(N3CCOCC3)c(=O)[nH]c2c1 [Compound 55]
Q. Cc1noc(C)c1-c1cc(S(=O)(=O)NC2CCCC2)c2cc(N3CCOC3=O)c(=O)[nH]c2c1 [Compound 64]
R. Cc1noc(C)c1-c1cc(S(=O)(=O)NC2CCCC2)c2ccc(OCC3CC3)nc2c1 [Compound 6]
S. Cc1noc(C)c1-c1cc(S(=O)(=O)N[C@@H]2CCC[C@@H]2O)c2cccnc2c1 [Compound 23]
T. COCCNc1cc2c(S(=O)(=O)NC3CCCC3)cc(-c3c(C)noc3C)cc2[nH]c1=O [Compound 58]
Endpoint returns the given molecules ordered by ascending pKd. Please respond with the labels ordered as the question requires.
S, Q, R, P, T
